tested on: 439559-082-T-J2-PDC complex spheroid growth; test: Anticancer human tumor 439559-082-T-J2-PDC patient-derived colon adenocarcinoma cell line growth inhibition [Asc]; details: second compound 0.316 µM; first compound 0.3 µM; stronger effect = lower value
measured-attribute: viability, T/C (%)
Answers are plain numbers, in %.

[
  {
    "molecule": "NC(=O)C(=Cn1cnc(-c2cc(C(F)(F)F)cc(C(F)(F)F)c2)n1)c1cncnc1 + Cc1c(S(C)(=O)=O)c(-c2cc(F)cc(N3CCN(c4ccc(NS(=O)(=O)c5ccc(NC(CCN6CCC(C(=O)OCCCP(=O)(O)O)CC6)CSc6ccccc6)c(S(=O)(=O)C(F)(F)F)c5)cc4)CC3)c2)c(-c2ccc(Cl)cc2)n1C(C)C",
    "viability, T/C [%]": 75.5
  },
  {
    "molecule": "Cc1nc(N2CCC3(CC2)COC(C)C3N)c(CO)nc1Sc1ccnc(N)c1Cl (stereo not drawn) + CNC(C)C(=O)NC1CN(S(=O)(=O)c2cccc(S(=O)(=O)N3CCC4CCC(C(=O)NC(c5ccccc5)c5ccccc5)N4C(=O)C(NC(=O)C(C)NC)C3)c2)CCC2CCC(C(=O)NC(c3ccccc3)c3ccccc3)N2C1=O",
    "viability, T/C [%]": 72.1
  }
]

Prompt: Item CCN1C(C(=O)NC23CCC(C(=O)O)(CC2)CC3)C(c2cccc(Cl)c2F)C2(C(=O)Nc3cc(Cl)ccc32)C12CCCCC2 (stereo not drawn) + Cc1c(S(C)(=O)=O)c(-c2cc(F)cc(N3CCN(c4ccc(NS(=O)(=O)c5ccc(NC(CCN6CCC(C(=O)OCCCP(=O)(O)O)CC6)CSc6ccccc6)c(S(=O)(=O)C(F)(F)F)c5)cc4)CC3)c2)c(-c2ccc(Cl)cc2)n1C(C)C : provide viability, T/C
Completion: 87.8

* * *

tested on: 439559-082-T-J2-PDC complex spheroid growth; test: Anticancer human tumor 439559-082-T-J2-PDC cell line growth inhibition [Asc]; settings: second compound 1 µM; first compound 0.00316 µM; stronger effect = lower value;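 note: spheroids exposed to agents for 7 days starting day 3 after seeding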;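 for viability, T/C: percent of DMSO vehicle control viability with 100% = vehicle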
measured-attribute: viability, T/C (%)
Answers are plain numbers, in %.

Provide each entry's viability, T/C from the list below.
1. COc1c(OCCCN2CCOCC2)ccc2c3n(c(=NC(=O)c4cnc(N)nc4)nc12)CCN3 + Cc1c(S(C)(=O)=O)c(-c2cc(F)cc(N3CCN(c4ccc(NS(=O)(=O)c5ccc(NC(CCN6CCC(C(=O)OCCCP(=O)(O)O)CC6)CSc6ccccc6)c(S(=O)(=O)C(F)(F)F)c5)cc4)CC3)c2)c(-c2ccc(Cl)cc2)n1C(C)C
2. O=C(c1ccc(F)c(F)c1Nc1ccc(I)cc1F)N1CC(O)([C@@H]2CCCCN2)C1 + CNC(C)C(=O)NC1CN(S(=O)(=O)c2cccc(S(=O)(=O)N3CCC4CCC(C(=O)NC(c5ccccc5)c5ccccc5)N4C(=O)C(NC(=O)C(C)NC)C3)c2)CCC2CCC(C(=O)NC(c3ccccc3)c3ccccc3)N2C1=O
3. Cn1ncnc1[C@H]1c2n[nH]c(=O)c3cc(F)cc(c23)N[C@@H]1c1ccc(F)cc1 + Cc1c(S(C)(=O)=O)c(-c2cc(F)cc(N3CCN(c4ccc(NS(=O)(=O)c5ccc(NC(CCN6CCC(C(=O)OCCCP(=O)(O)O)CC6)CSc6ccccc6)c(S(=O)(=O)C(F)(F)F)c5)cc4)CC3)c2)c(-c2ccc(Cl)cc2)n1C(C)C
4. CNC(C)C(=O)NC1CN(S(=O)(=O)c2cccc(S(=O)(=O)N3CCC4CCC(C(=O)NC(c5ccccc5)c5ccccc5)N4C(=O)C(NC(=O)C(C)NC)C3)c2)CCC2CCC(C(=O)NC(c3ccccc3)c3ccccc3)N2C1=O (stereo unspecified) + Cc1c(S(C)(=O)=O)c(-c2cc(F)cc(N3CCN(c4ccc(NS(=O)(=O)c5ccc(NC(CCN6CCC(C(=O)OCCCP(=O)(O)O)CC6)CSc6ccccc6)c(S(=O)(=O)C(F)(F)F)c5)cc4)CC3)c2)c(-c2ccc(Cl)cc2)n1C(C)C
5. CCN1CCN(Cc2ccc(Nc3ncc(F)c(-c4cc(F)c5nc(C)n(C(C)C)c5c4)n3)nc2)CC1 + CNC(C)C(=O)NC1CN(S(=O)(=O)c2cccc(S(=O)(=O)N3CCC4CCC(C(=O)NC(c5ccccc5)c5ccccc5)N4C(=O)C(NC(=O)C(C)NC)C3)c2)CCC2CCC(C(=O)NC(c3ccccc3)c3ccccc3)N2C1=O
6. COc1c(OCCCN2CCOCC2)ccc2c3n(c(=NC(=O)c4cnc(N)nc4)nc12)CCN3 + CNC(C)C(=O)NC1CN(S(=O)(=O)c2cccc(S(=O)(=O)N3CCC4CCC(C(=O)NC(c5ccccc5)c5ccccc5)N4C(=O)C(NC(=O)C(C)NC)C3)c2)CCC2CCC(C(=O)NC(c3ccccc3)c3ccccc3)N2C1=O

Completion:
1. 90.2
2. 72.2
3. 102
4. 97.5
5. 88.9
6. 80.8

* * *

Tested on: 439559-082-T-J2-PDC complex spheroid growth
Experiment: Anticancer human tumor 439559-082-T-J2-PDC cell line growth inhibition [Asc];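 note: spheroids exposed to agents for 7 days starting day 3 after seeding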
Conditions: curve of first compound; second compound 0.0316 µM
Excerpt: Multicellular complex tumor spheroid response to apoptosis pathway targeting inhibitors Alrizomadlin, Pelcitoclax, and Dasminapant in combination with a variety of drugs and investigational agents in selected tumor cell lines […] Compounds. […] If the clinical Cmax for an agent had not been determined, the highest concentration tested was 10 microM. […]
Task for the reader: assign each of the following molecules its reported IC50.

[
  {
    "molecule": "COc1c(OCCCN2CCOCC2)ccc2c3n(c(=NC(=O)c4cnc(N)nc4)nc12)CCN3 + CNC(C)C(=O)NC1CN(S(=O)(=O)c2cccc(S(=O)(=O)N3CCC4CCC(C(=O)NC(c5ccccc5)c5ccccc5)N4C(=O)C(NC(=O)C(C)NC)C3)c2)CCC2CCC(C(=O)NC(c3ccccc3)c3ccccc3)N2C1=O",
    "experimental-system": "439559-082-T-J2-PDC complex spheroid growth",
    "readout-value": "> 1000 nM"
  },
  {
    "molecule": "O=C(c1cc(Cc2n[nH]c(=O)c3ccccc23)ccc1F)N1CCN(C(=O)C2CC2)CC1 + CNC(C)C(=O)NC1CN(S(=O)(=O)c2cccc(S(=O)(=O)N3CCC4CCC(C(=O)NC(c5ccccc5)c5ccccc5)N4C(=O)C(NC(=O)C(C)NC)C3)c2)CCC2CCC(C(=O)NC(c3ccccc3)c3ccccc3)N2C1=O",
    "experimental-system": "439559-082-T-J2-PDC complex spheroid growth",
    "readout-value": "> 10000 nM"
  },
  {
    "molecule": "C#Cc1c(F)ccc2cc(O)cc(-c3ncc4c(N5CC6CCC(C5)N6)nc(OCC56CCCN5CC(F)C6)nc4c3F)c12 (centres undefined) + CNC(C)C(=O)NC1CN(S(=O)(=O)c2cccc(S(=O)(=O)N3CCC4CCC(C(=O)NC(c5ccccc5)c5ccccc5)N4C(=O)C(NC(=O)C(C)NC)C3)c2)CCC2CCC(C(=O)NC(c3ccccc3)c3ccccc3)N2C1=O",
    "experimental-system": "439559-082-T-J2-PDC complex spheroid growth",
    "readout-value": "1660 nM"
  }
]

Query molecule follows.
Prompt: Report IC50 for NC1CCC(NC2CC2c2ccccc2)CC1 (centres undefined) + CNC(C)C(=O)NC1CN(S(=O)(=O)c2cccc(S(=O)(=O)N3CCC4CCC(C(=O)NC(c5ccccc5)c5ccccc5)N4C(=O)C(NC(=O)C(C)NC)C3)c2)CCC2CCC(C(=O)NC(c3ccccc3)c3ccccc3)N2C1=O
Completion: > 100 nM

* * *

tested on: 439559-082-T-J2-PDC complex spheroid growth; test: Anticancer human tumor 439559-082-T-J2-PDC cell line growth inhibition [Asc]; conditions: second compound 0.00316 µM; first compound 0.01 µM; stronger effect = lower value;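 note: spheroids exposed to agents for 7 days starting day 3 after seeding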;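 for viability, T/C: percent of DMSO vehicle control viability with 100% = vehicle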
Please note: viability, T/C exactly at 80% is rule not met. Only values below 80% get rule met.

Below are worked cases with known answers.
[
  {
    "compound": "CCN1CCN(Cc2ccc(Nc3ncc(F)c(-c4cc(F)c5nc(C)n(C(C)C)c5c4)n3)nc2)CC1 + CNC(C)C(=O)NC1CN(S(=O)(=O)c2cccc(S(=O)(=O)N3CCC4CCC(C(=O)NC(c5ccccc5)c5ccccc5)N4C(=O)C(NC(=O)C(C)NC)C3)c2)CCC2CCC(C(=O)NC(c3ccccc3)c3ccccc3)N2C1=O",
    "experimental-system": "439559-082-T-J2-PDC complex spheroid growth",
    "class-assignment": "rule not met"
  },
  {
    "compound": "Cn1ncnc1[C@H]1c2n[nH]c(=O)c3cc(F)cc(c23)N[C@@H]1c1ccc(F)cc1 + CNC(C)C(=O)NC1CN(S(=O)(=O)c2cccc(S(=O)(=O)N3CCC4CCC(C(=O)NC(c5ccccc5)c5ccccc5)N4C(=O)C(NC(=O)C(C)NC)C3)c2)CCC2CCC(C(=O)NC(c3ccccc3)c3ccccc3)N2C1=O",
    "experimental-system": "439559-082-T-J2-PDC complex spheroid growth",
    "class-assignment": "rule met"
  },
  {
    "compound": "COc1c(OCCCN2CCOCC2)ccc2c3n(c(=NC(=O)c4cnc(N)nc4)nc12)CCN3 + CNC(C)C(=O)NC1CN(S(=O)(=O)c2cccc(S(=O)(=O)N3CCC4CCC(C(=O)NC(c5ccccc5)c5ccccc5)N4C(=O)C(NC(=O)C(C)NC)C3)c2)CCC2CCC(C(=O)NC(c3ccccc3)c3ccccc3)N2C1=O",
    "experimental-system": "439559-082-T-J2-PDC complex spheroid growth",
    "class-assignment": "rule not met"
  }
]

Prompt: Hello, I'm reviewing records and need to know if viability, T/C of O=C(c1ccc(F)c(F)c1Nc1ccc(I)cc1F)N1CC(O)([C@@H]2CCCCN2)C1 + CNC(C)C(=O)NC1CN(S(=O)(=O)c2cccc(S(=O)(=O)N3CCC4CCC(C(=O)NC(c5ccccc5)c5ccccc5)N4C(=O)C(NC(=O)C(C)NC)C3)c2)CCC2CCC(C(=O)NC(c3ccccc3)c3ccccc3)N2C1=O is below 80%. Could you check?
Completion: rule met

Prompt: Just wondering, is viability, T/C of NC1CCC(NC2CC2c2ccccc2)CC1 (stereo not given) + CNC(C)C(=O)NC1CN(S(=O)(=O)c2cccc(S(=O)(=O)N3CCC4CCC(C(=O)NC(c5ccccc5)c5ccccc5)N4C(=O)C(NC(=O)C(C)NC)C3)c2)CCC2CCC(C(=O)NC(c3ccccc3)c3ccccc3)N2C1=O below 80%?
Completion: rule not met
